Give measured pIC50 for each item. Keep answers brief.
TEST TARGET: Nicotinamide phosphoribosyltransferase (Homo sapiens, UniProt P43490)
Sequence (P43490 whole entry): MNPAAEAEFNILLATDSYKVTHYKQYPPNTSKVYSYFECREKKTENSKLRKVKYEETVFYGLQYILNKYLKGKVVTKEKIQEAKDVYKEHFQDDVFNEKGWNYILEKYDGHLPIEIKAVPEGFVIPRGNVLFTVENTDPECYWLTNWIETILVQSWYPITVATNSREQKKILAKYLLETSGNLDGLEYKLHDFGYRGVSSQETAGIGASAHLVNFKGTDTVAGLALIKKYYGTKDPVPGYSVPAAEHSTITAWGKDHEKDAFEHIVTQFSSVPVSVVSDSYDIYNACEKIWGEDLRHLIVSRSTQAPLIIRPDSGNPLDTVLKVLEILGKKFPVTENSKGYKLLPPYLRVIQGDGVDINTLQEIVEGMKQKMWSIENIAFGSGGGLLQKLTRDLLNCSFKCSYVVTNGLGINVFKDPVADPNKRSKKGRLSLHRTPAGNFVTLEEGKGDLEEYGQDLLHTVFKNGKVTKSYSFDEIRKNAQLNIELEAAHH
TEST DESCRIPTION: Inhibition of nicotinamide phosphoribosyltransferase-catalyzed conversion of nicotinamide to nicotinamide mononucleotide
Hey, just a heads up that pIC50 is the negative log base 10 of the concentration in molar.

Name the reported pIC50 value associated with the compound CC(C)=CCN(Cc1ccccc1Cl)c1ccc(C(=O)NCc2cccnc2)cc1 8.72

What pIC50 value was documented for this compound, CC(C)CCN(Cc1ccccc1Cl)c1ccc(C(=O)NCc2cccnc2)cc1 ? 8.21

Record request: pIC50 value, item C#CCN(Cc1cc2c(=O)n(C)c(CN3CCN(CCCN)CC3)nc2cc1Cl)c1ccc(C(=O)NCc2cccnc2)cc1 9.52

Need pIC50 of CCN(Cc1ccccc1Cl)c1ccc(C(=O)NCc2cccnc2)cc1 , thanks. 6.48

Endpoint output: pIC50 of C#CCN(Cc1cc2c(=O)n(C)c(C)nc2cc1Cl)c1ccc(C(=O)NCc2cccnc2)cc1 . Value? 9.26

Any idea what pIC50 was measured for Nc1nc(N)c2c(CCc3ccc(C(=O)NCc4cccnc4)cc3)c[nH]c2n1 ? 6.22

What value of pIC50 has been recorded for this entry: CCCN(Cc1ccccc1Cl)c1ccc(C(=O)NCc2cccnc2)cc1 7.82

If you can, please state the reported pIC50 value of C#CCN(Cc1cc2c(=O)n(C)c(CO)nc2cc1Cl)c1ccc(C(=O)NCc2cccnc2)cc1 . 9.10
